molecular target: Human M3 receptor (Homo sapiens, UniProt P20309)
Sequence (P20309 whole entry): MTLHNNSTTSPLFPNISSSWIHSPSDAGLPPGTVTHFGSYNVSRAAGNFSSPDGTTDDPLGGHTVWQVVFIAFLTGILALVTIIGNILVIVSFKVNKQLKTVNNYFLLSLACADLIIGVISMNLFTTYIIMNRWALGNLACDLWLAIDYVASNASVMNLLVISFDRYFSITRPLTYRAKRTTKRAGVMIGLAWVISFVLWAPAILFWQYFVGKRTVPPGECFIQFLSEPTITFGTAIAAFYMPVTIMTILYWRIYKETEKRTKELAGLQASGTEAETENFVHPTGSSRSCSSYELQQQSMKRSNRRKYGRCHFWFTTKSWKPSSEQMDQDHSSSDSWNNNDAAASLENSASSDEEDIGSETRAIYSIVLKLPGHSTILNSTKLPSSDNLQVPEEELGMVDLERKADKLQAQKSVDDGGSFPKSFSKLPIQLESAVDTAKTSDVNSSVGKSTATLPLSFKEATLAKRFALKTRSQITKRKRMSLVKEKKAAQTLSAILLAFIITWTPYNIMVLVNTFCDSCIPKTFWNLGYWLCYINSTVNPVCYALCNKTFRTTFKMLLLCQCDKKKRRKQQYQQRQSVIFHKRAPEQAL
Quick list: IC50 per entry.

{"columns": ["mol", "IC50"],
 "data": [
  ["O=C(NC1CCN(C(=O)COc2cccc([C@](O)(C(=O)OCC3CCN(Cc4ccccc4)CC3)c3ccccc3)c2)CC1)c1ccc(CNC[C@H](O)c2ccc(O)c3[nH]c(=O)ccc23)cc1", "0.3 to 3 nM"],
  ["O=C(COc1cccc([C@](O)(C(=O)OCC2CCN(Cc3ccccc3)CC2)c2ccccc2)c1)N1CC2(CCCN(C(=O)c3ccc(CCNC[C@H](O)c4ccc(O)c5[nH]c(=O)ccc45)cc3)C2)C1", "0.3 to 3 nM"],
  ["CN1CCC(COC(=O)[C@](O)(c2ccccc2)c2cccc(OCCCNC(=O)c3ccc(CNC[C@H](O)c4ccc(O)c5[nH]c(=O)ccc45)cc3)c2)CC1", "0.3 to 3 nM"]
]}

###

Quick list: pIC50 per entry.
target: UniProt:P20309
pIC50: −log10 of the molar value.
measurement name: pIC50

{"columns": ["compound", "target or system", "measurement name", "value measured"],
 "data": [
  ["CC(C)Oc1cc(C(=O)N[C@H]2C[C@H](NC(=O)COc3cccc([C@](O)(C(=O)OCC4CCN(Cc5ccccc5)CC4)c4ccccc4)c3)C2)ccc1CNC[C@H](O)c1ccc(O)c2[nH]c(=O)ccc12", "UniProt:P20309", "pIC50", "8.52 to 9.52"],
  ["O=C(c1ccc(CCNC[C@H](O)c2ccc(O)c3[nH]c(=O)ccc23)cc1)N1CCC2(CC1)CN(C(=O)c1ccc(COc3cccc([C@](O)(C(=O)OCC4CCN(Cc5ccccc5)CC4)c4ccccc4)c3)cc1)CCO2", "UniProt:P20309", "pIC50", "> 9.52"],
  ["O=C(COc1cccc([C@](O)(C(=O)OCC2CCN(Cc3ccccc3)CC2)c2ccccc2)c1)N[C@H]1CC[C@H](C(=O)N2CCC(CNC[C@H](O)c3ccc(O)c4[nH]c(=O)ccc34)CC2)CC1", "UniProt:P20309", "pIC50", "> 9.52"],
  ["O=C(COc1cccc([C@](O)(C(=O)OCC2CCN(Cc3ccccc3)CC2)c2ccccc2)c1)NCCCNC(=O)c1ccc(CCNC[C@H](O)c2ccc(O)c3[nH]c(=O)ccc23)cc1", "UniProt:P20309", "pIC50", "8.52 to 9.52"],
  ["O=C(COc1cccc([C@](O)(C(=O)OCC2CCN(Cc3ccccc3)CC2)c2ccccc2)c1)NC1CCN(C(=O)c2ccc(CCNC[C@H](O)c3ccc(O)c4[nH]c(=O)ccc34)cc2)CC1", "UniProt:P20309", "pIC50", "8.52 to 9.52"],
  ["Cc1ccc(C(O)(C(=O)OCC2CCN(Cc3ccccc3)CC2)c2cccc(OCCCCCNC[C@H](O)c3ccc(O)c4[nH]c(=O)ccc34)c2)cc1 (stereo partly drawn)", "UniProt:P20309", "pIC50", "8.52 to 9.52"],
  ["O=C(NCCCNC(=O)c1cccc(C(O)(C(=O)OCC2CCN(Cc3ccccc3)CC2)c2ccccc2)c1)c1ccc(CNC[C@H](O)c2ccc(O)c3[nH]c(=O)ccc23)cc1 (stereo partly drawn) [Compound 50, diformate]", "UniProt:P20309", "pIC50", "8.52 to 9.52"],
  ["O=C(OCC1CCN(Cc2ccccc2)CC1)C(O)(c1ccc(F)cc1)c1cccc(OCCCCCNC[C@H](O)c2ccc(O)c3[nH]c(=O)ccc23)c1 (stereo partly drawn)", "UniProt:P20309", "pIC50", "8.52 to 9.52"],
  ["O=C(NCCNC(=O)c1ccc(COc2cccc([C@](O)(C(=O)OCC3CCN(Cc4ccccc4)CC3)c3ccccc3)c2)cc1)c1ccc(CNC[C@H](O)c2ccc(O)c3[nH]c(=O)ccc23)cc1", "UniProt:P20309", "pIC50", "8.52 to 9.52"],
  ["O=C(NCCCCNC[C@H](O)c1ccc(O)c2[nH]c(=O)ccc12)c1cccc(C(O)(C(=O)OCC2CCN(Cc3ccccc3)CC2)c2ccccc2)c1 (stereo partly drawn) [Compound 47, diformate]", "UniProt:P20309", "pIC50", "8.52 to 9.52"],
  ["O=C(NCC1CCN(C(=O)COc2cccc([C@](O)(C(=O)OCC3CCN(Cc4ccccc4)CC3)c3ccccc3)c2)CC1)c1ccc(CCNC[C@H](O)c2ccc(O)c3[nH]c(=O)ccc23)cc1", "UniProt:P20309", "pIC50", "8.52 to 9.52"],
  ["O=C(c1cccc(COc2cccc([C@](O)(C(=O)OCC3CCN(Cc4ccccc4)CC3)c3ccccc3)c2)c1)N(CCCNC[C@H](O)c1ccc(O)c2[nH]c(=O)ccc12)Cc1ccccc1", "UniProt:P20309", "pIC50", "8.52 to 9.52"],
  ["O=C(COc1cccc([C@](O)(C(=O)OCC2CCN(Cc3ccccc3)CC2)c2ccccc2)c1)NC1CN(C(=O)c2ccc(CCNC[C@H](O)c3ccc(O)c4[nH]c(=O)ccc34)cc2)C1", "UniProt:P20309", "pIC50", "> 9.52"],
  ["O=C(NCCCOc1cccc([C@](O)(C(=O)OCC2CCN(Cc3ccccc3)CC2)c2ccccc2)c1)c1ccc(CNC[C@H](O)c2ccc(O)c3[nH]c(=O)ccc23)c(OC(F)(F)F)c1 [Compound 32E]", "UniProt:P20309", "pIC50", "8.52 to 9.52"],
  ["O=C(COc1cccc([C@](O)(C(=O)OCC2CCN(Cc3ccccc3)CC2)c2ccccc2)c1)N[C@H]1CCCN(C(=O)c2ccc(CNC[C@H](O)c3ccc(O)c4[nH]c(=O)ccc34)cc2)C1", "UniProt:P20309", "pIC50", "8.52 to 9.52"],
  ["O=C(NCCN(Cc1ccccc1)C(=O)COc1cccc([C@](O)(C(=O)OCC2CCN(Cc3ccccc3)CC2)c2ccccc2)c1)c1ccc(CCNC[C@H](O)c2ccc(O)c3[nH]c(=O)ccc23)cc1", "UniProt:P20309", "pIC50", "8.52 to 9.52"],
  ["CCOc1cc(C(=O)N[C@H]2C[C@H](NC(=O)COc3cccc([C@](O)(C(=O)OCC4CCN(Cc5ccccc5)CC4)c4ccccc4)c3)C2)ccc1CNC[C@H](O)c1ccc(O)c2[nH]c(=O)ccc12", "UniProt:P20309", "pIC50", "8.52 to 9.52"],
  ["CN1CCC(COC(=O)[C@](O)(c2ccccc2)c2cccc(OCCCCCNC[C@H](O)c3ccc(O)c4[nH]c(=O)ccc34)c2)CC1", "UniProt:P20309", "pIC50", "8.52 to 9.52"]
]}

Cited source for all entries: patent US9579314B2
